- PROTOCOL TEXT: Metabolic stability in rat plasma assessed as half life at 37 degC
- Type: ADME, cell-free
MEASUREMENT KIND: half-life

If you can, please state the reported half-life value of CCCC[C@H](NC(=O)[C@H](Cc1ccccc1)NC(=O)CNC(=O)[C@@H](C)NC(=O)[C@@H](N)Cc1ccc(O)cc1)C(=O)N1CCC[C@H]1C(=O)N[C@@H](CO[C@@H]1O[C@H](CO)[C@@H](O)[C@H](O)[C@H]1O)C(=O)N[C@@H](Cc1c[nH]c2ccccc12)C(=O)NCc1cc(C(F)(F)F)cc(C(F)(F)F)c1 .
> 6 h

Report half-life for CCCC[C@H](NC(=O)[C@H](Cc1ccccc1)NC(=O)CNC(=O)[C@@H](C)NC(=O)[C@@H](N)Cc1ccc(O)cc1)C(=O)N1CCC[C@H]1C(=O)N[C@@H](CC(C)C)C(=O)N[C@@H](Cc1c[nH]c2ccccc12)C(=O)NCc1cc(C(F)(F)F)cc(C(F)(F)F)c1 please.
> 6 h
